- Target System: Heat shock protein HSP90 (Homo sapiens, UniProt P07900+P08238)
- Assay Info: Inhibition of Hsp90 in human A549 cells assessed as Raf1 degradation after 24 hrs by Western blot analysis
- Format: cell-based
Endpoint Name: IC50 (µM)
Value expressed in µM; do not type the unit.

Returns the measured IC50 for the input compound. Input: COc1cccc(C(=O)NC2CC3CCC(C2)N3c2ccc(C(=O)N[C@@H](C)c3ccc(N4CCN(C)CC4)cc3)cn2)c1C (some centres undefined)
0.374

May I ask what IC50 has been recorded for C[C@H](NC(=O)c1ccc(N2C3CCC2CC(NC(=O)c2ccc(C(N)=O)c(Nc4ccccc4)c2)C3)nc1)c1ccc(N2CCN(C)CC2)cc1 (some centres undefined) ?
0.105

# lookup: IC50 of C[C@H](NC(=O)c1ccc(N2C3CCC2CC(NC(=O)c2ccc(C(N)=O)c(NCC4CC4)c2)C3)nc1)c1ccc(N2CCN(C)CC2)cc1 (some centres undefined)
0.042

Item under review: NC(=O)c1ccc(C(=O)NC2CC3CCC(C2)N3c2ccc(C(=O)NCc3ccccc3)cn2)cc1 (centres undefined) . Reported IC50?
5.2

May I ask what IC50 has been recorded for COc1cccc(C(=O)NC2CC3CCC(C2)N3c2ccc(C(=O)N[C@@H](C)c3ccccc3)cn2)c1C (some centres undefined) ?
0.421

If you can, please state the reported IC50 value of C[C@H](NC(=O)c1ccc(N2C3CCC2CC(NC(=O)c2ccc(C(N)=O)c(NC4CCC4)c2)C3)nc1)c1ccc(N2CCN(C)CC2)cc1 (some centres undefined) .
0.059

Value lookup for IC50; key = Cc1cc(C(=O)NC2CC3CCC(C2)N3c2ccc(C(=O)N[C@@H](C)c3ccc(N4CCN(C)CC4)cc3)cn2)c(C)cc1C(N)=O (some centres undefined)
2.9

Please give the measured IC50 for this compound: Cc1cc(CO)ccc1C(=O)NC1CC2CCC(C1)N2c1ccc(C(=O)NCc2ccccc2)cn1 (centres undefined)
1.9

Reported IC50 for COc1cccc(C(=O)NC2CC3CCC(C2)N3c2ccc(C(N)=O)cn2)c1C (centres undefined) : what is it?
3.8

Entry under review: O=C(NCc1ccccc1)c1ccc(N2C3CCC2CC(NC(=O)c2ccc(CO)cc2)C3)nc1 (centres undefined) . Reported IC50?
5.4

Any idea what its IC50 is? The compound is Cc1cc(C(N)=O)ccc1C(=O)NC1CC2CCC(C1)N2c1ccc(C(=O)NCc2ccccc2)cn1 (centres undefined)
2.7

So what does the record say about IC50 for COc1cccc(C(=O)NC2CC3CCC(C2)N3c2ccc(C(=O)NCc3ccc(N4CCN(C)CC4)cc3)cn2)c1C (centres undefined) ?
0.579

---

- Assay Info: Oral bioavailability in rat
- Assay type: ADME, organism-based
- Test Conditions: in vivo
Provide the reported bioavailability of each item.
Enter your answer as a number in %; do not include the unit.

// query bioavailability value for entry COc1cccc(C(=O)NC2CC3CCC(C2)N3c2ccc(C(=O)N[C@@H](C)c3ccc(N4CCN(C)CC4)cc3)cn2)c1C (some centres not stated)
30

Query (compound): COc1cccc(C(=O)NC2CC3CCC(C2)N3c2ccc(C(=O)NCc3ccc(N4CCN(C)CC4)cc3)cn2)c1C (configuration not stated) ; field requested: bioavailability
28

---

- Target System: Heat shock protein HSP90 (Homo sapiens, UniProt P07900+P08238)
- Assay Info: Displacement of biotinylated geldanamycin from human His-tagged Hsp90 by TR-FRET assay
- Type: protein assay
Endpoint Name: IC50 (µM)
Dear colleague, please return just the value in µM, with no unit written.

Please give the measured IC50 for this compound: COc1cccc(C(=O)NC2CC3CCC(C2)N3c2ccc(C(=O)N[C@@H](C)c3ccc(N4CCN(C)CC4)cc3)cn2)c1C (some centres undefined)
0.2

Would you mind telling me what IC50 value was observed for C[C@H](NC(=O)c1ccc(N2C3CCC2CC(NC(=O)c2ccc(C(N)=O)c(Nc4ccccc4)c2)C3)nc1)c1ccc(N2CCN(C)CC2)cc1 (some centres undefined) ?
0.26

Field request: IC50 | item: Cc1cc(CO)ccc1C(=O)NC1CC2CCC(C1)N2c1ccc(C(=O)NCc2ccccc2)cn1 (centres undefined)
0.128

Fill in: IC50 of CCNC(=O)c1ccc(N2C3CCC2CC(NC(=O)c2ccc(C(N)=O)c(NCC4CC4)c2)C3)nc1 (centres undefined) is ___
0.104

IC50 for COc1cccc(C(=O)NC2CC3CCC(C2)N3c2ccc(C(N)=O)cn2)c1C (centres undefined) ?
0.641

Quick one: IC50 of Cc1cc(C(N)=O)c(NC2CCCC2)cc1C(=O)NC1CC2CCC(C1)N2c1ccc(C(=O)C2CC2)cn1 (centres undefined) ?
0.027

Query: IC50; subject: COc1cccc(C(=O)NC2CC3CCC(C2)N3c2ccc(C(=O)NCc3ccc(N4CCN(C)CC4)cc3)cn2)c1C (centres undefined)
0.108

Which IC50 reading was recorded for the compound Cc1cc(C(N)=O)c(NC(C)C)cc1C(=O)NC1CC2CCC(C1)N2c1ccc(C(=O)C2CC2)cn1 (centres undefined) ?
0.021

Give its IC50 value. Item: CCC(CC)Nc1cc(C(=O)NC2CC3CCC(C2)N3c2ccc(C(C)=O)cn2)c(C)cc1C(N)=O (centres undefined)
0.028

What value of IC50 has been reported for the following compound? Cc1cc(C(N)=O)ccc1C(=O)NC1CC2CCC(C1)N2c1ccc(C(=O)NCc2ccccc2)cn1 (centres undefined)
0.598

// IC50 lookup, key: CC(=O)c1ccc(N2C3CCC2CC(NC(=O)c2ccc(C(N)=O)c(NCC4CC4)c2)C3)nc1 (centres undefined)
0.04

Query: IC50; subject: CCCNc1cc(C(=O)NC2CC3CCC(C2)N3c2ccc(C(=O)C3CC3)cn2)c(C)cc1C(N)=O (centres undefined)
0.024

Tell me the measured IC50 of NC(=O)c1ccc(C(=O)NC2CC3CCC(C2)N3c2ccc(C(=O)NCc3ccccc3)cn2)cc1 (centres undefined) , please.
0.445

Given CCC(CC)Nc1cc(C(=O)NC2CC3CCC(C2)N3c2ccc(C(=O)C3CC3)cn2)ccc1C(N)=O (centres undefined) , state its recorded IC50.
0.086

Which IC50 value is on record for O=C(NCc1ccccc1)c1ccc(N2C3CCC2CC(NC(=O)c2ccc(CO)cc2)C3)nc1 (centres undefined) ?
0.322

What does the record list as IC50 for CCC(CC)Nc1cc(C(=O)NC2CC3CCC(C2)N3c2ccc(C(C)=O)cn2)ccc1C(N)=O (centres undefined) ?
0.038

Need IC50, item COc1cccc(C(=O)NC2CC3CCC(C2)N3c2ccc(C(=O)N[C@@H](C)c3ccccc3)cn2)c1C (some centres undefined)
0.126

Name the reported IC50 value associated with the compound COc1cccc(C(=O)NC2CC3CCC(C2)N3c2ccc(C(=O)N[C@H](C)c3ccccc3)cn2)c1C (some centres undefined)
7.45

Fill blank: measured IC50 of the compound CC(C)C(=O)c1ccc(N2C3CCC2CC(NC(=O)c2ccc(C(N)=O)c(NCC4CC4)c2)C3)nc1 (centres undefined) is ____.
1.14
